Parameter Bliss excess: see the listing below.
# System: NCI-H2722 (Mesothelioma);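 further: after 72 h of two-drug dosing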
# assay.procedure: Bliss excess, mean over the matrix (fraction); higher = more synergy

COc1nnc2ccc(N3CCC(c4ccc(OCCN5CCN(C)C(=O)[C@H]5C)cc4)CC3)nn12 [AZD5153] + CCN(CCO)CCCOc1ccc2c(Nc3cc(CC(=O)Nc4cccc(F)c4)[nH]n3)ncnc2c1 [AZD2811] (first compound max 1 µM, 7x7, partner max 1 µM) : -0.0263
CN(C)CCCOc1ccc(-c2ccc3ncc4c(c3c2)n(C2CCOCC2)c(=O)n4C)cn1 [AZD0156] + C[C@@H]1COCCN1C2=NC(=NC(=C2)C3(CC3)[S@](=N)(=O)C)C4=C5C=CNC5=NC=C4 [AZD6738] (first compound max 1 µM, 7x7, partner max 10 µM) : -0.0384
CC(=O)c1c(C)c2cnc(Nc3ccc(N4CCNCC4)cn3)nc2n(C2CCCC2)c1=O [Palbociclib] + CC1(C)CCC(CN2CCN(c3ccc(C(=O)NS(=O)(=O)c4ccc(NCC5CCOCC5)c([N+](=O)[O-])c4)c(Oc4cnc5[nH]ccc5c4)c3)CC2)=C(c2ccc(Cl)cc2)C1 [Venetoclax] (first compound max 10 µM, 7x7, partner max 1 µM) : -0.0485
C[C@@H](c1ccc2nccn2c1)n1nnc2ncc(-c3cnn(C)c3)nc21 [Savolitinib] + CC1(C)CCC(CN2CCN(c3ccc(C(=O)NS(=O)(=O)c4ccc(NCC5CCOCC5)c([N+](=O)[O-])c4)c(Oc4cnc5[nH]ccc5c4)c3)CC2)=C(c2ccc(Cl)cc2)C1 [Venetoclax] (first compound max 1 µM, 7x7, partner max 1 µM) : -0.0617
CC1(C)CCC(CN2CCN(c3ccc(C(=O)NS(=O)(=O)c4ccc(NCC5CCOCC5)c([N+](=O)[O-])c4)c(Oc4cnc5[nH]ccc5c4)c3)CC2)=C(c2ccc(Cl)cc2)C1 [Venetoclax] + Cn1cnc2c(F)c(Nc3ccc(Br)cc3Cl)c(C(=O)NOCCO)cc21 [Selumetinib] (first compound max 1 µM, 7x7, partner max 3 µM) : -0.0741

Check the records and state Bliss excess for Cc1cc2ncnn2cc1Nc1ncc2c(n1)n(C1CCOCC1)c(=O)n2C [AZD7648] + CN(C)CCCOc1ccc(-c2ccc3ncc4c(c3c2)n(C2CCOCC2)c(=O)n4C)cn1 [AZD0156] (first compound max 10 µM, 7x7, partner max 1 µM) -0.0023

Name the recorded Bliss excess of the item CCN(CCO)CCCOc1ccc2c(Nc3cc(CC(=O)Nc4cccc(F)c4)[nH]n3)ncnc2c1 [AZD2811] + O=C(c1cc(Cc2n[nH]c(=O)c3ccccc23)ccc1F)N1CCN(C(=O)C2CC2)CC1 [Olaparib] (first compound max 1 µM, 7x7, partner max 10 µM) in your answer. -0.016

Give recorded Bliss excess. C=CCn1c(=O)c2cnc(Nc3ccc(N4CCN(C)CC4)cc3)nc2n1-c1cccc(C(C)(C)O)n1 [AZD1775] + C[C@@H]1COCCN1C2=NC(=NC(=C2)C3(CC3)[S@](=N)(=O)C)C4=C5C=CNC5=NC=C4 [AZD6738] (first compound max 1 µM, partner max 10 µM) -0.0029

Identify measured Bliss excess associated with NC1(C(=O)N[C@@H](CCO)c2ccc(Cl)cc2)CCN(c2ncnc3[nH]ccc23)CC1 [Capivasertib] + Cn1cnc2c(F)c(Nc3ccc(Br)cc3Cl)c(C(=O)NOCCO)cc21 [Selumetinib] (first compound max 10 µM, 7x7, partner max 10 µM) 0.0009

Supply reported Bliss excess belonging to this compound: CCc1c2c(nc3ccc(O)cc13)-c1cc3c(c(=O)n1C2)COC(=O)[C@]3(O)CC [SN-38] + O=C(c1cc(Cc2n[nH]c(=O)c3ccccc23)ccc1F)N1CCN(C(=O)C2CC2)CC1 [Olaparib] (first compound max 0.3 µM, 7x7, partner max 10 µM) 0.0188

Give the reported Bliss excess for this compound. CC1(C)CCC(CN2CCN(c3ccc(C(=O)NS(=O)(=O)c4ccc(NCC5CCOCC5)c([N+](=O)[O-])c4)c(Oc4cnc5[nH]ccc5c4)c3)CC2)=C(c2ccc(Cl)cc2)C1 [Venetoclax] + C[C@@H]1COCCN1C2=NC(=NC(=C2)C3(CC3)[S@](=N)(=O)C)C4=C5C=CNC5=NC=C4 [AZD6738] (first compound max 1 µM, 7x7, partner max 10 µM) -0.0405

Could you please provide reported Bliss excess for CC(=O)c1c(C)c2cnc(Nc3ccc(N4CCNCC4)cn3)nc2n(C2CCCC2)c1=O [Palbociclib] + Cn1cnc2c(F)c(Nc3ccc(Br)cc3Cl)c(C(=O)NOCCO)cc21 [Selumetinib] (first compound max 10 µM, 7x7, partner max 10 µM) ? Thanks! -0.069

Determine from records and report Bliss excess for Cc1c2c(nn1C)CSCc1cc(n(C)n1)CSc1cc(c3ccccc3c1)OCCCc1c(C(=O)O)n(C)c3c-2c(Cl)ccc13 [AZD5991] + C=CCn1c(=O)c2cnc(Nc3ccc(N4CCN(C)CC4)cc3)nc2n1-c1cccc(C(C)(C)O)n1 [AZD1775] (first compound max 1 µM, partner max 1 µM) -0.016
